# ASSAYED TARGET: T1, Human C5 (human, UniProt P01031 19-1676)
# T1 construct: The natural protein has a beta and an alpha chain; also called complement factor 5; complement component 5
# ASSAY REMARKS: SPR, mAb captured by anti-hFc, 37C
Collected 100 nM Human C5 Bound (RU) values appear next to each entry.
Give the value in RU but do not write RU after it.

>  <BINDER>
H4H12166P7 (antibody, human IgG4, V domains shown, human IgG4 Fc with S108P hinge mutation) VH: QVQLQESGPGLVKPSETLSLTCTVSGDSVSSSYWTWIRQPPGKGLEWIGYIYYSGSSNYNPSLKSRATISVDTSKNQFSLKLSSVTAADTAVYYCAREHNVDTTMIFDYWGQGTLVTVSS VL: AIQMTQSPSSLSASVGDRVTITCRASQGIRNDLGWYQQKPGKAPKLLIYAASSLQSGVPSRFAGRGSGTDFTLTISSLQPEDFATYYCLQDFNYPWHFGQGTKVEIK

>  <UNIT>
RU

>  <100 nM Human C5 Bound (RU)>
105

$$$$
>  <BINDER>
H4H12166P5 (antibody, human IgG4, V domains shown, human IgG4 Fc with S108P hinge mutation) VH: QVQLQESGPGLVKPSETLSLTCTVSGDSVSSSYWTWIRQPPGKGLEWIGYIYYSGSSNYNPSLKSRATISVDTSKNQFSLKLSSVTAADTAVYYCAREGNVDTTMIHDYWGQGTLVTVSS VL: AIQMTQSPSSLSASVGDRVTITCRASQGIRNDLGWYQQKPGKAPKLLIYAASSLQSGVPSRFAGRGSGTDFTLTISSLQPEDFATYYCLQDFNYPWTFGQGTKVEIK

>  <UNIT>
RU

>  <100 nM Human C5 Bound (RU)>
129

$$$$

Okay, now this binder:
In: 100 nM Human C5 Bound (RU) lookup needed for H4H12166P2 (antibody, human IgG4, V domains shown, human IgG4 Fc with S108P hinge mutation) VH: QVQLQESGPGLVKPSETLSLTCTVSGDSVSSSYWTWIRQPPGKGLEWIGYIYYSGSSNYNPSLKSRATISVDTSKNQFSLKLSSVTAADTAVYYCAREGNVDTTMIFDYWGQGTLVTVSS VL: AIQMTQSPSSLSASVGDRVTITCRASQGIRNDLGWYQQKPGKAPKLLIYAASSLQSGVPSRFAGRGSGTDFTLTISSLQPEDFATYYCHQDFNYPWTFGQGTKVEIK , thanks.
Out: 110
